target: LFA-1 binding to immobilized ICAM-1 (Homo sapiens, UniProt P05107+P20701); construct: made in house; host or cells: transfected 293 cells (LFA-1); assay: LFA-1/ICAM-1 Protein-Protein Assay (solid-phase ELISA); details: 5dICAM-Ig coated plates; membrane-bound LFA-1 from transfected 293 cells; mono sodium salt
Sequence (P20701 26-1170): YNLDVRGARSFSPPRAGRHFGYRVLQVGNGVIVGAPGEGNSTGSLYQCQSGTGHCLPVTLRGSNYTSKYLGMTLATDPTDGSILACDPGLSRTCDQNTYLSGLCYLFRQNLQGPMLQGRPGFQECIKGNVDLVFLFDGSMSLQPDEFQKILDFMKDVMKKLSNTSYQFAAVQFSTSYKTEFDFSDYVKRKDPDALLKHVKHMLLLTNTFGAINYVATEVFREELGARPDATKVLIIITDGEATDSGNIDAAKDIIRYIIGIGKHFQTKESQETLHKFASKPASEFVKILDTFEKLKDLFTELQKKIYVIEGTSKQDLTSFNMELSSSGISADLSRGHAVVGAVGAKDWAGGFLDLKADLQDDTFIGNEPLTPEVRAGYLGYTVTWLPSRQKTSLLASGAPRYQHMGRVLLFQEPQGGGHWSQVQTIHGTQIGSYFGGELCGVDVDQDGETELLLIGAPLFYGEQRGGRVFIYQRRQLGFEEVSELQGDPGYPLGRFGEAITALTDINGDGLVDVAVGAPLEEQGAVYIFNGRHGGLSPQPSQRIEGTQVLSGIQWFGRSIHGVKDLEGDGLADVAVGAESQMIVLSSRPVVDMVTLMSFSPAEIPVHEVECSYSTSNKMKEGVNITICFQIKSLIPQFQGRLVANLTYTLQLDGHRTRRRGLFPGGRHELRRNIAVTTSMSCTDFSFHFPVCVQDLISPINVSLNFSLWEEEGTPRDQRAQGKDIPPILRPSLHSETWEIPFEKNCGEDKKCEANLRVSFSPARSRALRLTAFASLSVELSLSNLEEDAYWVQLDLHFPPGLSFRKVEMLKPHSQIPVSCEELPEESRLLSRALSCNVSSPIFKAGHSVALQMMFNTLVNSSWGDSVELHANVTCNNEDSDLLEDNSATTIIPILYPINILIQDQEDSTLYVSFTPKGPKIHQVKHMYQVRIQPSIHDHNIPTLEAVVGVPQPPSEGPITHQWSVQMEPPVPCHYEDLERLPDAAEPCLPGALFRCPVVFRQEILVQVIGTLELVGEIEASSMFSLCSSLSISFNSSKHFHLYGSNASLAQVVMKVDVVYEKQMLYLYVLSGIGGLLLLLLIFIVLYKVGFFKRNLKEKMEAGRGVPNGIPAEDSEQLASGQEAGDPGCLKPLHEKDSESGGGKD
Sequence (P05107 23-769): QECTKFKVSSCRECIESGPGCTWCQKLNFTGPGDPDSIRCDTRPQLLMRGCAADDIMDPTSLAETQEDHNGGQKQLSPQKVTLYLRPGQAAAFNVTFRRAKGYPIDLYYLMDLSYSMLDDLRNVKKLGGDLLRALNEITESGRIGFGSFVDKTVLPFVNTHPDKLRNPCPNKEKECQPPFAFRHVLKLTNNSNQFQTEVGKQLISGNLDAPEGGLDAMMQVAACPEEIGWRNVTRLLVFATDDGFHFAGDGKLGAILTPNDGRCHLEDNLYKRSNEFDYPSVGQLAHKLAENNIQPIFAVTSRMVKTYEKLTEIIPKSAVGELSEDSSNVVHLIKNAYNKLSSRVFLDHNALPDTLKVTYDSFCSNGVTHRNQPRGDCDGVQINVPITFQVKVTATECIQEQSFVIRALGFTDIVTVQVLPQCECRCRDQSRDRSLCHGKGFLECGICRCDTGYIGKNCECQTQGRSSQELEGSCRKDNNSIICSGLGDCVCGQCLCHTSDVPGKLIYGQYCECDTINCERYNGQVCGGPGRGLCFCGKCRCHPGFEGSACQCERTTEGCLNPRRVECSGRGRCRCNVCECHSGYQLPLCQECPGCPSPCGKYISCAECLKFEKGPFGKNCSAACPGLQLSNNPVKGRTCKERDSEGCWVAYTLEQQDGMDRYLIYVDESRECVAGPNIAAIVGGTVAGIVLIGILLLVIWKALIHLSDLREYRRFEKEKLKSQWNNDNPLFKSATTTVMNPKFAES
Parameter measured: IC50 (nM)

Cc1nc(C)c(/C=C(\NC(=O)c2ccc(C(=O)NCc3cccc(O)c3)cc2Br)C(=O)O)s1 = 2.01

* * *

test system: T lymphocyte proliferation (murine spleen cells); assay: Mixed Lymphocyte Reaction (MLR), one-way; format: cell-based, mice; conditions: C57B1/6 spleen cells with irradiated BALB/c spleen cells; tritiated thymidine incorporation, 3 days; listed as 285^c
pIC50: −log10 of the molar value.
Parameter measured: pIC50

O=C(O)/C(=C/c1ccc2[nH]nnc2c1)NC(=O)c1ccc(C(=O)NCc2cccc(O)c2)cc1Br = 6.72

* * *

Biological target: LFA-1 binding to immobilized ICAM-1 (Homo sapiens, UniProt P05107+P20701)
Construct: made in house; host or cells: transfected 293 cells (LFA-1)
Assay: LFA-1/ICAM-1 Protein-Protein Assay (solid-phase ELISA)
Conditions: 5dICAM-Ig coated plates; membrane-bound LFA-1 from transfected 293 cells; trifluoroacetate salt
Method: LFA-1/ICAM-1 Protein-Protein Assay LFA-1/ICAM-1 antagonist activity, defined as the ability to block LFA-1 binding to immobilized ICAM-1, was quantitated using a solid-phase ELISA. Typically, fusion protein consisting of the entire extracellular domain of human ICAM-1 and the Fc domain of human IgG (5dICAM-Ig) was coated onto 96-well microtiter plates (0.15 μg in 100 μL PBS) overnight at 4° C. […] The plates were then read at 450 nm.
Parameter measured: IC50 (nM)

O=C(O)/C(=C/c1ccc2[nH]nnc2c1)NC(=O)c1ccc(C(=O)NCc2cccc(O)c2)cc1Br [Example 285] = 0.34

* * *

biological target: LFA-1 binding to immobilized ICAM-1 (Homo sapiens, UniProt P05107+P20701); construct: made in house; host or cells: transfected 293 cells (LFA-1); assay: LFA-1/ICAM-1 Protein-Protein Assay (solid-phase ELISA); conditions: 5dICAM-Ig coated plates; membrane-bound LFA-1 from transfected 293 cells
Reported IC50 values follow for various compounds
Parameter measured: IC50

O=C(O)/C(=C/c1cccs1)NC(=O)c1ccc(C(=O)NCc2cccc(O)c2)cc1Br [Example 271] = 33 nM
O=C(O)/C(=C/c1ccccc1)NC(=O)c1ccc(C(=O)NCc2cccc3[nH]ccc23)cc1Cl [Example 306] = 10.4 nM
O=C(O)/C(=C/c1ccoc1)NC(=O)c1ccc(C(=O)NCc2cccc(O)c2)cc1Br [Example 243] = 13.2 nM
O=C(O)/C(=C/c1nc2ccccc2s1)NC(=O)c1ccc(C(=O)NCc2cccc(O)c2)cc1Br [Example 276] = 50.6 nM
Cc1cc(C(=O)NCc2cccc(O)c2)ccc1C(=O)N/C(=C\c1ccc2cc[nH]c2c1)C(=O)O [Example 316] = 3 nM
O=C(O)/C(=C/c1cnc2ccccc2c1)NC(=O)c1ccc(C(=O)NCc2cccc(O)c2)cc1Cl [Example 283] = 0.79 nM
CCc1nc(C(C)C)c(/C=C(\NC(=O)c2ccc(C(=O)NCc3cccc(O)c3)cc2Cl)C(=O)O)s1 [Example 303] = 190 nM
Cc1nc(C)c(/C=C(\NC(=O)c2ccc(C(O)CCc3cccc(O)c3)cc2Cl)C(=O)O)s1 (racemic) [Example 297] = 5.96 nM
Cc1cc(C(=O)N[C@H](C)c2cccc3ccccc23)cc(C)c1C(=O)N/C(=C\c1cnc2ccccc2c1)C(=O)O [Example 241] = 2.04 nM
Cn1c(/C=C(\NC(=O)c2ccc(C(=O)NCc3cccc(O)c3)cc2Br)C(=O)O)nc2ccccc21 [Example 288] = 201 nM
Cc1noc(C)c1/C=C(\NC(=O)c1ccc(C(=O)NCc2cccc(O)c2)cc1Br)C(=O)O [Example 281] = 244 nM
O=C(O)/C(=C/c1ccc2ncsc2c1)NC(=O)c1ccc(C(=O)NCc2cccc3[nH]ccc23)cc1Br [Example 267] = 6.37 nM
Cc1nc(C)c(/C=C(\NC(=O)c2c(C)cc(C(=O)NCc3cccc(O)c3)cc2C)C(=O)O)s1 [Example 248] = 3.96 nM
O=C(O)/C(=C/c1ccsc1)NC(=O)c1ccc(C(=O)NCc2cccc(O)c2)cc1Br [Example 313] = 8.2 nM
CC(C)c1ncsc1/C=C(\NC(=O)c1ccc(C(=O)NCc2cccc(O)c2)cc1Cl)C(=O)O [Example 300] = 32.5 nM
